test system: 699152-130-R-J1-PDC complex spheroid viability; assay: Anticancer human tumor 699152-130-R-J1-PDC patient-derived pancreatic carcinoma cell line growth inhibition [POLQ]; conditions: second compound 3.16 µM; first compound 0.1 µM; stronger effect = lower value
test.readout: viability, T/C (%)
Numbers only, in %.

{"columns": ["compound", "viability, T/C / %"],
 "data": [
  ["CC1COCCN1c1cc(C2(O)CC3CCC(C2)O3)c2cnn(-c3ccn[nH]3)c2n1 (stereo not drawn) + Nc1ccc(C#CCN(C(=O)Cc2ncc(C(F)(F)F)cc2C(F)(F)F)c2ccc(F)cc2)nn1", 84.6],
  ["CC[C@@]1(O)C(=O)OCc2c1cc1n(c2=O)Cc2cc3c(CN(C)C)c(O)ccc3nc2-1 + COC1C(OC(N)=O)C(O)C(Oc2ccc3c(O)c(NC(=O)c4ccc(O)c(CC=C(C)C)c4)c(=O)oc3c2C)OC1(C)C", 58]
]}

--- query ---
Ask: Given the compound CC1COCCN1c1cc(C2(S(C)(=N)=O)CC2)nc(-c2ccnc3[nH]ccc23)n1 (stereo not drawn) + Nc1ccc(C#CCN(C(=O)Cc2ncc(C(F)(F)F)cc2C(F)(F)F)c2ccc(F)cc2)nn1 , what is its reported viability, T/C?
Reply: 93.4

###

I'd appreciate it if you could supply viability, T/C values for the items below.
test system: 699152-130-R-J1-PDC complex spheroid viability; assay: Anticancer human tumor 699152-130-R-J1-PDC cell line growth inhibition [POLQ]; conditions: second compound 3.16 µM; first compound 0.1 µM; stronger effect = lower value;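 further: spheroids exposed to agents for 7 days before viability reading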;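 on viability, T/C: percent of DMSO vehicle control viability so 100% = vehicle and 0% = no viable signal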
Numbers only, in %.

{"columns": ["compound", "viability, T/C / %"],
 "data": [
  ["CC[C@@]1(O)C(=O)OCc2c1cc1n(c2=O)Cc2cc3c(CN(C)C)c(O)ccc3nc2-1 + Cc1cccc(N(C)C(=O)C2C(O)CCN2c2nc(C)cc(C(F)(F)F)c2C#N)c1", 64.1]
]}

# batch: return viability, T/C for each of the 2 compounds below
1. O=C(c1cc(Cc2n[nH]c(=O)c3ccccc23)ccc1F)N1CCN(C(=O)C2CC2)CC1 + Cc1cccc(N(C)C(=O)C2C(O)CCN2c2nc(C)cc(C(F)(F)F)c2C#N)c1
2. CC1COCCN1c1cc(-c2ccnn2C)c2ccnc(-c3ccn[nH]3)c2n1 (stereo not given) + Nc1ccc(C#CCN(C(=O)Cc2ncc(C(F)(F)F)cc2C(F)(F)F)c2ccc(F)cc2)nn1

Reply:
1. 104
2. 92.7

# batch: return viability, T/C for each of the 2 compounds below
1. O=C(c1cc(Cc2n[nH]c(=O)c3ccccc23)ccc1F)N1CCN(C(=O)C2CC2)CC1 + Nc1ccc(C#CCN(C(=O)Cc2ncc(C(F)(F)F)cc2C(F)(F)F)c2ccc(F)cc2)nn1
2. CCc1cc2c(N3CCc4c(cc(Cn5ccnc5)cc4-c4cn(C)nc4C(F)(F)F)C3=O)cc(C)nc2c(OC)n1 + COC1C(OC(N)=O)C(O)C(Oc2ccc3c(O)c(NC(=O)c4ccc(O)c(CC=C(C)C)c4)c(=O)oc3c2C)OC1(C)C

Reply:
113
86.8

###

tested on: 699152-130-R-J1-PDC complex spheroid viability; assay: Anticancer human tumor 699152-130-R-J1-PDC cell line growth inhibition [POLQ]; conditions: second compound 10 µM; first compound 1 µM; stronger effect = lower value;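 further: spheroids exposed to agents for 7 days before viability reading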;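 on viability, T/C: percent of DMSO vehicle control viability so 100% = vehicle and 0% = no viable signal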
test.readout: viability, T/C

Reference set (2 entries):
{"columns": ["compound", "test.readout", "result"],
 "data": [
  ["COc1cc2cc(C(=O)CCC(=O)O)sc2cc1OC + Nc1ccc(C#CCN(C(=O)Cc2ncc(C(F)(F)F)cc2C(F)(F)F)c2ccc(F)cc2)nn1", "viability, T/C", "111%"],
  ["CC(C)n1c(=O)n(C)c2cnc3cc(F)c(-c4ccc(OCCCN5CCCCC5)nc4)cc3c21 + COC1C(OC(N)=O)C(O)C(Oc2ccc3c(O)c(NC(=O)c4ccc(O)c(CC=C(C)C)c4)c(=O)oc3c2C)OC1(C)C", "viability, T/C", "38.3%"]
]}

--- query ---
Ask: Given the compound CCc1c2c(nc3ccc(O)cc13)-c1cc3c(c(=O)n1C2)COC(=O)[C@]3(O)CC + Nc1ccc(C#CCN(C(=O)Cc2ncc(C(F)(F)F)cc2C(F)(F)F)c2ccc(F)cc2)nn1 , what is its reported viability, T/C?
Reply: 9.98%

###

tested on: 699152-130-R-J1-PDC complex spheroid viability; test: Anticancer human tumor 699152-130-R-J1-PDC cell line growth inhibition [POLQ]; conditions: second compound 0.0316 µM; first compound 0.316 µM; stronger effect = lower value;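 further: spheroids exposed to agents for 7 days before viability reading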;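 on viability, T/C: percent of DMSO vehicle control viability so 100% = vehicle and 0% = no viable signal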
test.readout: viability, T/C

{"columns": ["compound", "viability, T/C"],
 "data": [
  ["COc1ccc([C@@H](O)c2cc(-c3ncnc4cc(N5CCOCC5)ccc34)c(F)cc2Cl)nn1 + Cc1cccc(N(C)C(=O)C2C(O)CCN2c2nc(C)cc(C(F)(F)F)c2C#N)c1", "98.3%"],
  ["CCCS(=O)(=O)Nc1ccc(F)c(C(=O)c2c[nH]c3ncc(-c4ccc(Cl)cc4)cc23)c1F + COC1C(OC(N)=O)C(O)C(Oc2ccc3c(O)c(NC(=O)c4ccc(O)c(CC=C(C)C)c4)c(=O)oc3c2C)OC1(C)C", "125%"],
  ["COc1ccc([C@@H](O)c2cc(-c3ncnc4cc(N5CCOCC5)ccc34)c(F)cc2Cl)nn1 + COC1C(OC(N)=O)C(O)C(Oc2ccc3c(O)c(NC(=O)c4ccc(O)c(CC=C(C)C)c4)c(=O)oc3c2C)OC1(C)C", "85.6%"],
  ["C=CCn1c(=O)c2cnc(Nc3ccc(N4CCN(C)CC4)cc3)nc2n1-c1cccc(C(C)(C)O)n1 + COC1C(OC(N)=O)C(O)C(Oc2ccc3c(O)c(NC(=O)c4ccc(O)c(CC=C(C)C)c4)c(=O)oc3c2C)OC1(C)C", "94.6%"]
]}

# batch: return viability, T/C for each of the 8 compounds below
1. COc1cccc(OCCCN)c1-c1cc(Nc2cnc(C#N)cn2)n[nH]1 + Nc1ccc(C#CCN(C(=O)Cc2ncc(C(F)(F)F)cc2C(F)(F)F)c2ccc(F)cc2)nn1
2. CC1COCCN1c1cc(C2(S(C)(=N)=O)CC2)nc(-c2ccnc3[nH]ccc23)n1 (stereo unspecified) + Nc1ccc(C#CCN(C(=O)Cc2ncc(C(F)(F)F)cc2C(F)(F)F)c2ccc(F)cc2)nn1
3. Nc1ccn(C2OC(CO)C(O)C2(F)F)c(=O)n1 (stereo unspecified) + Nc1ccc(C#CCN(C(=O)Cc2ncc(C(F)(F)F)cc2C(F)(F)F)c2ccc(F)cc2)nn1
4. COc1cc2cc(C(=O)CCC(=O)O)sc2cc1OC + Cc1cccc(N(C)C(=O)C2C(O)CCN2c2nc(C)cc(C(F)(F)F)c2C#N)c1
5. CC1COCCN1c1cc(C2(O)CC3CCC(C2)O3)c2cnn(-c3ccn[nH]3)c2n1 (stereo unspecified) + Cc1cccc(N(C)C(=O)C2C(O)CCN2c2nc(C)cc(C(F)(F)F)c2C#N)c1
6. Nc1ccn(C2OC(CO)C(O)C2(F)F)c(=O)n1 (stereo unspecified) + Cc1cccc(N(C)C(=O)C2C(O)CCN2c2nc(C)cc(C(F)(F)F)c2C#N)c1
7. O=C(Nc1ccc(O)c(NS(=O)(=O)c2ccc(F)cc2)c1)c1ccc(-c2ccccc2)cc1 + COC1C(OC(N)=O)C(O)C(Oc2ccc3c(O)c(NC(=O)c4ccc(O)c(CC=C(C)C)c4)c(=O)oc3c2C)OC1(C)C
8. COc1cc(C2c3cc4c(cc3C(OC3OC5COC(C)OC5C(O)C3O)C3COC(=O)C23)OCO4)cc(OC)c1O (stereo unspecified) + Cc1cccc(N(C)C(=O)C2C(O)CCN2c2nc(C)cc(C(F)(F)F)c2C#N)c1

Reply:
["62.4%", "89.4%", "50.5%", "92.6%", "64.9%", "53.7%", "117%", "76.4%"]

# batch: return viability, T/C for each of the 3 compounds below
1. CCc1cc2c(N3CCc4c(cc(Cn5ccnc5)cc4-c4cn(C)nc4C(F)(F)F)C3=O)ccnc2c(OC)n1 + COC1C(OC(N)=O)C(O)C(Oc2ccc3c(O)c(NC(=O)c4ccc(O)c(CC=C(C)C)c4)c(=O)oc3c2C)OC1(C)C
2. CC1COCCN1c1cc(C2(S(C)(=N)=O)CC2)nc(-c2ccnc3[nH]ccc23)n1 (stereo unspecified) + Cc1cccc(N(C)C(=O)C2C(O)CCN2c2nc(C)cc(C(F)(F)F)c2C#N)c1
3. COc1cccc(OCCCN)c1-c1cc(Nc2cnc(C#N)cn2)n[nH]1 + Cc1cccc(N(C)C(=O)C2C(O)CCN2c2nc(C)cc(C(F)(F)F)c2C#N)c1

Reply:
["95.5%", "90.2%", "50.8%"]

###

test system: 699152-130-R-J1-PDC complex spheroid viability; assay: Anticancer human tumor 699152-130-R-J1-PDC cell line growth inhibition [POLQ]; details: curve of first compound; second compound 1 µM;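 further: spheroids exposed to agents for 7 days before viability reading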
I'd appreciate it if you could supply IC50 values for the items below.

# batch: return IC50 for each of the 4 compounds below
1. COc1cc2cc(C(=O)CCC(=O)O)sc2cc1OC + Cc1cccc(N(C)C(=O)C2C(O)CCN2c2nc(C)cc(C(F)(F)F)c2C#N)c1
2. O=C(Nc1ccc(O)c(NS(=O)(=O)c2ccc(F)cc2)c1)c1ccc(-c2ccccc2)cc1 + COC1C(OC(N)=O)C(O)C(Oc2ccc3c(O)c(NC(=O)c4ccc(O)c(CC=C(C)C)c4)c(=O)oc3c2C)OC1(C)C
3. C#Cc1c(F)ccc2cc(O)cc(-c3ncc4c(N5CC6CCC(C5)N6)nc(OCC56CCCN5CC(F)C6)nc4c3F)c12 (stereo not given) + Nc1ccc(C#CCN(C(=O)Cc2ncc(C(F)(F)F)cc2C(F)(F)F)c2ccc(F)cc2)nn1
4. O=C(Nc1ccc(O)c(NS(=O)(=O)c2ccc(F)cc2)c1)c1ccc(-c2ccccc2)cc1 + Nc1ccc(C#CCN(C(=O)Cc2ncc(C(F)(F)F)cc2C(F)(F)F)c2ccc(F)cc2)nn1

Reply:
1: > 10 µM; 2: > 10 µM; 3: < 0.0316 µM; 4: > 10 µM

Ask: Given the compound CCc1cc2c(N3CCc4c(cc(Cn5ccnc5)cc4-c4cn(C)nc4C(F)(F)F)C3=O)cc(C)nc2c(OC)n1 + Nc1ccc(C#CCN(C(=O)Cc2ncc(C(F)(F)F)cc2C(F)(F)F)c2ccc(F)cc2)nn1 , what is its reported IC50?
Reply: > 10 µM
